# Test system: Mycobacterium tuberculosis
# protocol: Antitubercular activity against Mycobacterium tuberculosis H37Rv expressing inhA G96V mutant assessed as parasite growth inhibition after 7 days by Alamar Blue assay
# Type: functional
observed property: MIC (µg/mL)
The reply should be a number in µg/mL, with the unit left off.

// below: answered compounds
compound structure string	data value
NNC(=O)c1ccncc1	0.06
CO[C@H]1/C=C/O[C@@]2(C)Oc3c(C)c(O)c4c(O)c(c(/C=N/N5CCN(C)CC5)c(O)c4c3C2=O)NC(=O)/C(C)=C\C=C\[C@H](C)[C@H](O)[C@@H](C)[C@@H](O)[C@@H](C)[C@H](OC(C)=O)[C@@H]1C	0.01

Field: next compound
Exam item: State recorded MIC with Mycobacterium tuberculosis, entry `COc1c(N2C[C@@H]3CCCN[C@@H]3C2)c(F)cc2c(=O)c(C(=O)O)cn(C3CC3)c12` , no comment.
Marked response: 0.12

This collection of values is drawn from ChEMBL document CHEMBL3085704.
